# system-tested: α4β7 integrin (Homo sapiens, UniProt P13612+P26010)
# Construct: a cell line RPMI-8866, which is known to express α4β7 integrin; endogenous in cells; host or cells: RPMI-8866 (human B cell line)
# Sequence (P13612 34-1032): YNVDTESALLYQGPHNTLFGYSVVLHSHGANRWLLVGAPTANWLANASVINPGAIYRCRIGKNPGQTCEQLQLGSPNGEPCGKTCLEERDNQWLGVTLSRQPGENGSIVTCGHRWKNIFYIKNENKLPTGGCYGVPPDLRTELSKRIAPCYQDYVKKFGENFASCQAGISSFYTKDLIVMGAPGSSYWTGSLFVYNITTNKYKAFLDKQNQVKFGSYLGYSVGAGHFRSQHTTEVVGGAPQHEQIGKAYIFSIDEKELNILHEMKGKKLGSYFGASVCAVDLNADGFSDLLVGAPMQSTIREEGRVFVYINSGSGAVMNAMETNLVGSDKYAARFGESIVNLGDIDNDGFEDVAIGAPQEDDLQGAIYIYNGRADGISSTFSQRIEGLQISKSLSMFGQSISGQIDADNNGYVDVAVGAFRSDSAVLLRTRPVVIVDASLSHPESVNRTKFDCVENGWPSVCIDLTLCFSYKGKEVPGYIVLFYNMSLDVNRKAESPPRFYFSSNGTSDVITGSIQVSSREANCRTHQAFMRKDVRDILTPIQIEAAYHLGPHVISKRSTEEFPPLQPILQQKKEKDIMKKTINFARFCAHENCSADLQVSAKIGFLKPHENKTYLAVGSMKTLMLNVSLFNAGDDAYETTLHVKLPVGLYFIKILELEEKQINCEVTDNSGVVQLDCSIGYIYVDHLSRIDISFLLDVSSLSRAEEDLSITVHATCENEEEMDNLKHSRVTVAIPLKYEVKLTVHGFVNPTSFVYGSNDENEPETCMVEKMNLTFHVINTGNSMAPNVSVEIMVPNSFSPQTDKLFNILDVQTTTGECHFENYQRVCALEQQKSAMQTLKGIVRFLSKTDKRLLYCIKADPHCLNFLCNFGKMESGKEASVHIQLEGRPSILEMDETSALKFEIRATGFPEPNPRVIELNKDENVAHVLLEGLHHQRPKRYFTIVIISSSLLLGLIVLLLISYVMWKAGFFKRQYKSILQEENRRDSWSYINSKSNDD
# Sequence (P26010 20-798): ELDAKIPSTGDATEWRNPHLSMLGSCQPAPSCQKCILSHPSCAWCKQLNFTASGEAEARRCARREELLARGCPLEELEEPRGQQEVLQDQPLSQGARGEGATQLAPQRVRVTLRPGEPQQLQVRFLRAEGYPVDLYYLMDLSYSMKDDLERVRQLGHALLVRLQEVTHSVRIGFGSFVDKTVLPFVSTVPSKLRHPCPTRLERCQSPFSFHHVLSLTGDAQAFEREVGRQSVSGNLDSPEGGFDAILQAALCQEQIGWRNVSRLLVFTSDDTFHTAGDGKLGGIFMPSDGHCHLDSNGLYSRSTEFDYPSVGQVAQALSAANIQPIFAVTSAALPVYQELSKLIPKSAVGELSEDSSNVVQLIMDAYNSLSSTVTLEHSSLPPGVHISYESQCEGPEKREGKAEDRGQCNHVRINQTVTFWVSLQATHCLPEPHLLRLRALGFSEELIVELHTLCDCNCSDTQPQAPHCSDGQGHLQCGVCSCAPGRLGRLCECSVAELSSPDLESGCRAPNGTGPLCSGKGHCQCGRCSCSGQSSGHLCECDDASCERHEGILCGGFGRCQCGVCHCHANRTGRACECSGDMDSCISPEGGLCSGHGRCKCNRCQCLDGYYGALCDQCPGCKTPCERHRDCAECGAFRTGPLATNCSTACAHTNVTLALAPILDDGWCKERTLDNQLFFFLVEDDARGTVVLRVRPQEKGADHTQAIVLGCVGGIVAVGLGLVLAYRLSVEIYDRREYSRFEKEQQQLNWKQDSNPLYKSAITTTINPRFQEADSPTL
# assay-notes: MAdCAM-1/α4β7 integrin binding inhibitory activity evaluation test in presence of serum
# Assay type: cell-based
# particulars: RPMI-8866 cells, recombinant mouse MAdCAM-1/Fc, 50% human serum; read-out: α4β7 Serum Added IC50
quantity: log10 IC50 (log10 of the value in nM)
Use the decimal logarithm of IC50 (nM).

Answered cases to consult:
{"smiles-text": "Cc1c(C)n(C)c(=O)n(-c2ccc(C[C@H](NC(=O)c3cc(F)c(NS(=O)(=O)c4ccc(NC(=O)C(C)(C)C)nc4)cc3F)C(=O)O)cc2)c1=O", "log10 IC50": 1.68}
{"smiles-text": "Cc1cn(C)c(=O)n(-c2ccc(C[C@H](NC(=O)c3cc(F)c(NS(=O)(=O)c4ccc(NC(=O)C#CC(C)(C)C)cc4)cc3F)C(=O)O)cn2)c1=O", "log10 IC50": 1.52}
{"smiles-text": "Cn1c2c(c(=O)n(-c3ccc(C[C@H](NC(=O)c4cc(F)c(NS(=O)(=O)c5ccc(NC(=O)C(C)(C)C)cc5)cc4F)C(=O)O)cn3)c1=O)COCC2", "log10 IC50": 0.41}
{"smiles-text": "Cc1c(C)n(C)c(=O)n(-c2ccc(C[C@H](NC(=O)c3cc(F)c(NS(=O)(=O)c4ccc(NC(=O)C5(c6ccccc6)CC5)cc4)cc3F)C(=O)O)cc2)c1=O", "log10 IC50": 1.63}
{"smiles-text": "COC1(C(=O)Nc2ccc(S(=O)(=O)Nc3cc(F)c(C(=O)N[C@@H](Cc4ccc(-n5c(=O)c6ccncc6n(C)c5=O)cc4)C(=O)O)cc3F)cc2)CC1", "log10 IC50": 1.64}

Request the reported log10 IC50 associated with Cn1cnc2c1c(=O)n(-c1ccc(C[C@H](NC(=O)c3cc(F)c(NS(=O)(=O)c4ccc(NC(=O)C(C)(C)C)cc4)cc3F)C(=O)O)cc1)c(=O)n2C
0.76

Consider the molecule Cn1c(=O)n(-c2ccc(C[C@H](NC(=O)c3cc(F)c(NS(=O)(=O)c4ccc(NC(=O)C5CCNCC5)cc4)cc3F)C(=O)O)cc2)c(=O)c2ccncc21 and give its measured log10 IC50.
1.15

Which log10 IC50 value belongs to Cn1c(=O)n(-c2ccc(C[C@H](NC(=O)c3cc(F)c(NS(=O)(=O)c4ccc(NC(=O)c5ccncc5)cc4)cc3F)C(=O)O)cc2)c(=O)c2ccncc21 ?
1.45

What does the data say about its log10 IC50? Entry: Cc1cn(C)c(=O)n(-c2ccc(C[C@H](NC(=O)c3cc(F)c(NS(=O)(=O)c4ccc(NC(=O)C(C)C)cc4)cc3F)C(=O)O)cn2)c1=O
1.63

Suppose we examine the molecule Cn1cc(C(F)(F)F)c(=O)n(-c2ccc(C[C@H](NC(=O)c3cc(F)c(NS(=O)(=O)c4ccc(NC(=O)C(C)(C)C)cc4)cc3F)C(=O)O)cn2)c1=O ; what log10 IC50 value has been reported?
1.15

Param item = Cn1ccc(=O)n(-c2ccc(C[C@H](NC(=O)c3cc(F)c(NS(=O)(=O)c4ccc(NC(=O)C5CCCC5)cc4)cc3F)C(=O)O)cn2)c1=O ; retrieve measured log10 IC50.
1.95
